system: 786-0 renal; experiment: NCI-60 one-dose screen, 48 h; conditions: 10 µM unless noted
About 83,000 compounds went through this panel and 20% of them were active in at least one assay; those are over-represented in the sample as a whole. Activity calls are given as the source filed them. How the source made its calls: active means growth percent below 10; inactive means the rest.
Response enum: true (1) for active, false (0) for inactive

These solved cases illustrate the format of a correct answer.
CSc1ccccc1NC(=O)c1ccc2nn(/C(C#N)=C/c3ccccn3)nc2c1	true (1)
COc1cc(C2CC(c3cc(OC)c(OC)c(OC)c3)=NN2C(C)=O)ccc1OCc1ccc(F)cc1 (stereo unspecified)	false (0)
O=C(/C=C/c1cccc(OCc2ccc(F)cc2)c1)c1nc2ccccc2[nH]1	true (1)

// query Tell me the assay call for "C#CCOc1ccc(/C=N/Nc2nc(-c3cc4cc(Br)ccc4oc3=O)cs2)cc1OC" please.
// result false (0)

// query Outcome? "O=c1[nH]c(=O)c2c(-c3cc4ccccc4oc3=O)ccnc2[nH]1"
// result false (0)

---

test system: RPMI-8226 leukemia; assay: NCI-60 one-dose screen, 48 h (100 = growth as untreated, 0 = no growth, -100 = all killed); details: 10 µM unless noted
This is part of a sample that, as a whole, favours compounds with a hit. Of some 83,000 tested, about 20% had one in any assay.
growth vs 70%: at or above is MET, below is NOT MET.

COc1ccc(C2=NN(c3ccccc3)C(c3ccc(OC)c(OCc4ccccc4)c3)C2)cc1OC (stereo not given)	MET
Cc1cc2c(cc1Cl)C(=O)/C(=C/c1ccccc1)O2	NOT MET
O=c1c2ccccc2nc(-c2ccccc2)n1/N=C/c1ccc2ccccc2c1	NOT MET

With those in mind, consider the next compound.
// query Is reported growth greater than or equal to 70% here: "COc1ccc(/C=C/c2nc3ccccc3c(=O)n2CC(=O)Nc2ccc(Cl)cc2)cc1"
// result MET

---

test system: OVCAR-8 ovarian; assay: NCI-60 one-dose screen, 48 h; conditions: 10 µM unless noted
The panel holds about 83,000 compounds, 20% with a hit somewhere; the sample as a whole holds those more often. Calls of active or inactive are those of the source. How the source made its calls: active means growth percent below 10; inactive means the rest.
Permitted responses: Y (active), N (inactive)

// known answers, use as guide
CC(C)CSc1nc(NCCc2c[nH]c3ccccc23)c(C#N)c(-c2ccc(F)cc2)n1	N
C=C1CC[C@@H]2[C@]3(C)COC(c4cn[nH]c4-c4ccc(C)cc4)O[C@@H]3CC[C@@]2(C)[C@@H]1C/C=C1/C(=O)OCC1O (some centres not stated)	Y
CC(=O)OC[C@@]1(C)C2CC[C@]3(C)C(CC=C4C5CC(C)(C)CC[C@]5(C(=O)Nc5ccc(Br)cc5)CC[C@]43C)[C@@]2(C)C[C@@H](OC(C)=O)[C@@H]1OC(C)=O (some centres not stated)	N
Cn1nc(C(F)(F)F)cc1-c1cc(Cl)c(COc2ccc(Cl)cc2)c(-c2ccc(Cl)c(C(F)(F)F)c2)c1O	Y
Cc1cccc(-c2nc(Nc3ccc(C)c(S(N)(=O)=O)c3)c3ccccc3n2)c1	N
COC1=C[C@]23CCC(=O)N2CCc2cc4c(cc2[C@@H]3[C@@H]1OC(=O)[C@H](C)O)OCO4	N
C=C1CC[C@@H]2[C@]3(C)COC(c4cn(-c5ccccc5)nc4-c4cccc([N+](=O)[O-])c4)O[C@@H]3CC[C@@]2(C)[C@@H]1C/C=C1/C(=O)OC[C@H]1O (some centres not stated)	Y
O=C(COc1ccc2c(c1)CCCC(=O)N2)NCc1ccccc1	N
CC(=O)Oc1ccccc1C(=O)[Se]CC(=O)Nc1cccc(C(F)(F)F)c1	Y
COc1ccc(-c2ccnc(SCc3cc4ccccc4[nH]c3=O)n2)cc1OC	Y

We now examine a further molecule.
// query Status in this test for CC1(C)CC[C@]2(C(=O)Nc3ccccc3)CC[C@]3(C)C(=CCC4[C@@]5(C)C[C@@H](O)[C@H](O)[C@@](C)(CO)C5CC[C@]43C)C2C1 (some centres not stated) ?
// result N

Entry source: PubChem BioAssay (NCI)
